System: isolated left atrium of male guineapigs
Assay Summary: Antiarrhythmic action on the isolated guineapig atrium (drop in maximum rhythmicity)
Set-up: species or system guineapig (strain: Pirbright white)
Condition Notes: Cavia porcellus, Tyrode's solution pH 7.4, 32° C., read-out: Maximum rhythmicity (ED 50%): concentration which causes a 50% drop in the maximum rhythmicity
Where a name gives a salt, the structure may show the parent alone.
Attribute: EC50
Attribute Measured: EC50

[[record]]
molecule = "CSCC(C)NCC(O)COc1ccccc1C(=O)CCc1ccccc1 (stereo not shown) [Example 10, hydrochloride]"
attribute_measured = "EC50"
observed_measurement = "1.13 µg/mL"

[[record]]
molecule = "C#CC(C)NCC(O)COc1ccccc1C(=O)CCc1ccccc1 (stereo not shown) [Example 6, hydrochloride]"
attribute_measured = "EC50"
observed_measurement = "1.71 µg/mL"

[[record]]
molecule = "O=C(CCc1ccccc1)c1ccccc1OCC(O)CN1CCC(O)CC1 (stereo not shown) [Example 23, hydrochloride]"
attribute_measured = "EC50"
observed_measurement = "1.64 µg/mL"

[[record]]
molecule = "CCCNCC(O)COc1ccccc1C(=O)CCc1ccc(F)cc1 (stereo not shown) [Example 33, hydrochloride]"
attribute_measured = "EC50"
observed_measurement = "2.05 µg/mL"


---

Test system: isolated left atrium of male guineapigs
Assay Summary: Antiarrhythmic action on the isolated guineapig atrium (drop in maximum rhythmicity)
Design: species or system guineapig (strain: Pirbright white)
Condition Notes: Cavia porcellus, Tyrode's solution pH 7.4, 32° C., read-out: Maximum rhythmicity (ED 50%): concentration which causes a 50% drop in the maximum rhythmicity
Where a name gives a salt, the structure may show the parent alone.
// NB: equality with 1 µg/mL counts as false (0); only EC50 strictly below is true (1)

[[record]]
compound = "CCCNCC(O)COc1ccc(C)cc1C(=O)CCc1ccc(OC)c(OC)c1 (centres unmarked) [Example 48, hydrochloride]"
assigned_category = "true (1)"

[[record]]
compound = "COc1ccc(CCNCC(O)COc2ccccc2C(=O)CCc2ccccc2)cc1OC (centres unmarked) [Example 14, hydrochloride]"
assigned_category = "false (0)"

[[record]]
compound = "CCCNCC(O)COc1ccccc1C(=O)CCc1ccccc1 (centres unmarked) [Propafenone, hydrochloride, reference compound]"
assigned_category = "false (0)"

[[record]]
compound = "CCCN(CCC)CC(O)COc1ccc(Cl)cc1C(=O)CCc1ccc(F)cc1 (centres unmarked) [Example 47, hydrochloride]"
assigned_category = "false (0)"

[[record]]
compound = "CCCNCC(O)COc1ccccc1C(=O)CCc1ccc(C)cc1 (centres unmarked) [Example 34, hydrochloride]"
assigned_category = "false (0)"


---

System: isolated left atrium of male guineapigs
Assay Summary: Antiarrhythmic action on the isolated guineapig atrium (drop in maximum rhythmicity)
Parameters: species or system guineapig (strain: Pirbright white)
Condition Notes: Cavia porcellus, Tyrode's solution pH 7.4, 32° C., read-out: Maximum rhythmicity (ED 50%): concentration which causes a 50% drop in the maximum rhythmicity
Structures can show the parent of a compound that is named as a salt.
Attribute Measured: EC50

[[record]]
molecule = "CN1CCN(CC(O)COc2ccccc2C(=O)CCc2ccccc2)CC1 (stereo not shown) [Example 25, bis-hydrochloride]"
observed_measurement = "1.01 µg/mL"

[[record]]
molecule = "O=C(CCc1ccccc1)c1ccccc1OCC(O)CN1CCC(c2ccccc2)C1 (stereo not shown) [Example 22, hydrochloride]"
observed_measurement = "1.21 µg/mL"

[[record]]
molecule = "CCCN(CCC)CC(O)COc1ccc(C)cc1C(=O)CCc1ccc(Cl)cc1 (stereo not shown) [Example 46, hydrochloride]"
observed_measurement = "0.778 µg/mL"

[[record]]
molecule = "COCC(C)NCC(O)COc1ccccc1C(=O)CCc1ccccc1 (stereo not shown) [Example 2, hydrochloride]"
observed_measurement = "0.874 µg/mL"

[[record]]
molecule = "CCCNCC(O)COc1ccccc1C(=O)CCc1ccccc1OC (stereo not shown) [Example 29, hydrochloride]"
observed_measurement = "1.71 µg/mL"

[[record]]
molecule = "CN(C)CC(O)COc1ccccc1C(=O)CCc1ccccc1 (stereo not shown) [Example 18, hydrochloride]"
observed_measurement = "1.3 µg/mL"

[[record]]
molecule = "COCCNCC(O)COc1ccccc1C(=O)CCc1ccccc1 (stereo not shown) [Example 9, hydrochloride]"
observed_measurement = "0.757 µg/mL"

